growth values, listed per item
- Tested on: OVCAR-8 ovarian
- measurement-notes: NCI-60 one-dose screen, 48 h (100 = growth as untreated, 0 = no growth, -100 = all killed)
- condition-summary: 10 µM unless noted
Compounds without any hit were thinned out: in the full panel of roughly 83,000, 20% have a hit.
Number only, in %; omit the unit.

[[record]]
molecule = "CCCCCCCC12Cc3ccccc3C1=Nc1c(c3ccccc3n1C)C2=O (configuration not stated)"
measure_unit = "%"
experimental_result = 85.2

[[record]]
molecule = "CC/C(=C(/c1ccc(Cl)cc1)c1ccc(OCCN2CCCCC2)cc1)c1ccc(Cl)cc1"
measure_unit = "%"
experimental_result = 81.4

[[record]]
molecule = "O=C(N/N=C/c1ccc(Cl)cc1)c1cc(-c2cc3ccccc3o2)nn1-c1ccccc1"
measure_unit = "%"
experimental_result = 93.7

[[record]]
molecule = "CCN(CC)CCNC(=O)c1c(C)[nH]c(/C=C2\\C(=O)Nc3ccc(F)cc32)c1C"
measure_unit = "%"
experimental_result = 1.47


Task: Name the recorded growth for `CNC(=O)c1ccccc1Nc1nc(Nc2ccc3c(c2OC)CCC[C@H](N2CCN(CCO)CC2)C3)ncc1Cl` .
Result: 12.5

Task: Name the recorded growth for `NC[C@@](O)(c1ccc(Cl)cc1)c1ccc(-c2cn[nH]c2)cc1` .
Result: 29.1

Task: Name the recorded growth for `C#Cc1cccc(Nc2ncnc3cc4c(cc23)OCCOCCOCCO4)c1` .
Result: 53.9

Hey, just so you know, these numbers are from PubChem BioAssay (NCI).
